# Test system: NOMO1
# procedureDetails: cell viability relative to DMSO control; higher = less cytotoxic
# assayContext: RPMI 5 mM glucose + 10% FBS; 48 h; 1.71 µM
resultType: cell viability (%)
# unit: % | format: bare number

CCc1c(O)cc(O)c(C(=O)c2ccc(OCCN3CCOCC3)c(OC)c2)c1CC(=O)N(CCOC)CCOC = 93.4
CCCc1nc2c(C)cc(-c3nc4ccccc4n3C)cc2n1Cc1ccc(-c2ccccc2C(=O)O)cc1 = 143
O=[N+]([O-])c1ccc(Nc2ccccc2-c2ccccc2)c2nonc12 = 102

For the molecule `Cc1ccc(NC(=O)c2cccc(N(C)C)c2)cc1NC(=O)c1ccc(O)cc1` , report cell viability.
118

For the molecule `NCCCC(O)(P(=O)(O)O)P(=O)(O)O.O.O.O.[Na+]` , report cell viability.
106

For the molecule `CN(C)CC[C@H](CSc1ccccc1)Nc1ccc([S+](=O)([O-])NC(=O)c2ccc(N3CCN(Cc4ccccc4-c4ccc(Cl)cc4)CC3)cc2)cc1[N+](=O)[O-]` , report cell viability.
80.7

For the molecule `CCCC(CCC)C(=O)[O-]` , report cell viability.
102

For the molecule `COc1cccc2c(NCc3ccccc3)nc(-n3c(N)nc4ccccc43)nc12` , report cell viability.
101

For the molecule `NC(=O)c1ccc(-c2nc(-c3ccc4c(c3)OCO4)c(-c3ccccn3)[nH]2)cc1` , report cell viability.
109

For the molecule `CN1CC/C(CC1)=C3\c4ccccc4CC(=O)c2sccc23` , report cell viability.
131

For the molecule `COc1cc(Nc2ncc(F)c(Nc3ccc4c(n3)N(COP(=O)(O)O)C(=O)C(C)(C)O4)n2)cc(OC)c1OC` , report cell viability.
94.4

---

# Test system: P12-Ichikawa
# procedureDetails: AUC of viability dose-response curve (% viability x log10 dose units); higher = less sensitive
# assayContext: RPMI 5 mM glucose + 10% dialyzed FBS; 48 h
Below: a set of entries, each annotated with reported AUC of viability dose-response curve.
Form: value (number only, do not type unit).

Known results for compounds:
O=[S+]([O-])(/N=C/c1c(O)ccc2ccccc12)c1cccs1 = 468
CNC(=O)c1cc(Oc2ccc(NC(=O)Nc3ccc(Cl)c(C(F)(F)F)c3)cc2)ccn1 = 448

Please respond with reported AUC of viability dose-response curve (system P12-Ichikawa) for COc1ccc(CC2c3cc(OC)c(OC)cc3CC[N+]2(C)CCC(=O)OCCCCCOC(=O)CC[N+]2(C)CCc3cc(OC)c(OC)cc3C2Cc2ccc(OC)c(OC)c2)cc1OC (stereo unspecified) .
427

Please respond with reported AUC of viability dose-response curve (system P12-Ichikawa) for `O=C(NCCO[N+](=O)[O-])c1cccnc1` .
475

Please respond with reported AUC of viability dose-response curve (system P12-Ichikawa) for `O=C(c1ccc(/C=C/c2n[nH]c3ccccc23)cc1)N1CCNCC1` .
346

Please respond with reported AUC of viability dose-response curve (system P12-Ichikawa) for `CN(CCOc1ccc(NS(C)(=O)=O)cc1)CCc1ccc(NS(C)(=O)=O)cc1` .
464

Please respond with reported AUC of viability dose-response curve (system P12-Ichikawa) for `NC(=O)c1cnc(-c2ccc(C3(N)CCC3)cc2)c(-c2ccccc2)c1` .
432

---

# Tested on: P12-Ichikawa
# procedureDetails: cell viability relative to DMSO control; higher = less cytotoxic
# assayContext: HPLM + 10% dialyzed FBS; 48 h; 0.000781 µM
Below: a set of entries, each annotated with reported cell viability.
# unit: % | format: bare number

Known results for compounds:
O=C(O)CCNc1cc(N2CCc3ccccc3CC2)nc(-c2ccccn2)n1 = 119
CCCC(CCC)C(=O)[O-] = 87.4
O=C1CCC[C@@H]2[C@H]3CCC[N+]4([O-])CCC[C@@H](CN12)[C@@H]34 (stereo partly drawn) = 88.3
CN1CC/C(CC1)=C3\c4ccccc4CC(=O)c2sccc23 = 117
Cn1cnc(-c2cc3nccc(Oc4ccc(NC(=S)NC(=O)Cc5ccccc5)cc4F)c3s2)c1 = 79

Please respond with reported cell viability (system P12-Ichikawa) for C=C[C@H]1CN2CCC1C[C@@H]2[C@@H](O)c1ccnc2ccccc12 (stereo partly drawn) .
101

Please respond with reported cell viability (system P12-Ichikawa) for `O=C(O)[C@@H](c1ccc(OCc2ccc3ccccc3n2)cc1)C1CCCC1` .
113

Please respond with reported cell viability (system P12-Ichikawa) for `CN1\N=N/C2=C(N=C[N]2C1=O)C(N)=O` .
127

Please respond with reported cell viability (system P12-Ichikawa) for `CCCCOc1ccc(CC(=O)NO)cc1` .
108

Please respond with reported cell viability (system P12-Ichikawa) for `CN(CCOc1ccc(NS(C)(=O)=O)cc1)CCc1ccc(NS(C)(=O)=O)cc1` .
108

Please respond with reported cell viability (system P12-Ichikawa) for `O=[S+]([O-])(/N=C/c1c(O)ccc2ccccc12)c1cccs1` .
109

Please respond with reported cell viability (system P12-Ichikawa) for `O=C(Nc1ccc([N+](=O)[O-])cc1Cl)c1cc(Cl)ccc1O` .
95.3

Please respond with reported cell viability (system P12-Ichikawa) for `CCCCCCCCOc1ccccc1C(=O)Nc1ccc(C(=O)OCC[N+](C)(CC)CC)cc1` .
93.6
